Where do these numbers come from? They come from PubChem BioAssay (NCI).

System: A498 renal
Experiment: NCI tumour cell line growth inhibition, 48 h
Recorded endpoint: log10 of TGI (log10 of the value in µM)

Compound	log10 of TGI
COc1ccc(Cl)cc1Nc1nc(C(F)(F)F)ccc1C(=O)N/N=C/c1ccccc1Cl	1.29
CCOC1Oc2ccccc2C(=O)/C1=C\Nc1ccc(C(=O)O)c(O)c1 (centres undefined)	1.87
CC1=C(N2CC2)C(=O)C(C)=C(N2CC2)C1=O	-0.39
CC[C@H](C)[C@H](NC(=O)[C@H]1CCCCN1C)C(=O)N(C)[C@H](C[C@@H](OC(C)=O)c1nc(C(=O)NC23C4C5C2C2C3C4C52C(=O)OC)cs1)C(C)C (some centres undefined)	-0.88
CCCCCCCCC1C(C)c2c([nH]c3ccccc23)C2C(=O)N(c3ccccc3)C(=O)C21 (centres undefined)	1.57
COc1ccc(C(=O)/C=C/c2c(C(F)(F)F)nc3ccccn23)cc1OC	1.34
